Target: Cytochrome P450 11B1, mitochondrial (Homo sapiens, UniProt P15538)
Sequence (P15538 whole entry): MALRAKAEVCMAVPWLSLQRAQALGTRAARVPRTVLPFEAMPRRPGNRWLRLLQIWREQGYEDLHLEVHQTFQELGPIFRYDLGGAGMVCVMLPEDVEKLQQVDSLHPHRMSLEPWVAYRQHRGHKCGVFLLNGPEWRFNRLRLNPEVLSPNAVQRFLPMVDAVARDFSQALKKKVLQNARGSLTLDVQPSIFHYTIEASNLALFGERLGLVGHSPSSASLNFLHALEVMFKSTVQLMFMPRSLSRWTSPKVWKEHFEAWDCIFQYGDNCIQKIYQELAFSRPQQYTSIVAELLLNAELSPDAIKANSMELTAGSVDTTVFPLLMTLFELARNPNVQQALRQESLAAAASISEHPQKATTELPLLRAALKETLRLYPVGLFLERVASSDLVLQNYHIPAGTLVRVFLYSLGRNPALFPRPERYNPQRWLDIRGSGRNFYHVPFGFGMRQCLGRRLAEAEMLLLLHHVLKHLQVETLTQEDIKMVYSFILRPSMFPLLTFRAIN
Experiment: Inhibition of human CYP11B1 expressed in Chinese hamster V79 MZh cells using [14C]-deoxycorticosteron as substrate measured after 6 hrs by phosphoimager analysis
recorded.endpoint: IC50 (nM)
The reply should be a number in nM, with the unit left off.

The following molecules have reported results that may help.
// IC50 lookup, molecule = Cc1ccc(NC(=O)[C@]23ON=C(c4cccnc4)[C@H]2[C@@H]2CC[C@H]3C2)cc1 , result: 128

IC50 reported for this molecule O=C(Nc1ccc(F)cc1)[C@]12ON=C(c3cccnc3)[C@H]1[C@@H]1CC[C@H]2C1 : 57

Briefly, IC50 measured for O=C(Nc1cccc(Cl)c1)[C@]12ON=C(c3cccnc3)[C@H]1[C@@H]1CC[C@H]2C1 : 97

Turning now to a further molecule:
Entry COc1ccc(NC(=O)[C@]23ON=C(c4cccnc4)[C@H]2[C@@H]2CC[C@H]3C2)cc1 — recorded IC50 = 79

====

Assay: Cmax in Sprague-Dawley rat at 25 mg/kg, po measured up to 24 hrs by LC-MS analysis
Format: ADME, organism-based
Parameters: dose 25 mg/kg, time < 24 hrs, route po
Conditions: in vivo
recorded.endpoint: Cmax (ng/mL)
Your answer should be a plain number; it is taken to be in ng/mL.

So, O=C(Nc1ccc2[nH]ncc2c1)[C@]12ON=C(c3cccnc3)[C@H]1[C@@H]1CC[C@H]2C1 ? Its Cmax was 7990

====

Biological target: Cytochrome P450 11B1, mitochondrial (Homo sapiens, UniProt P15538)
Test: Inhibition of human CYP11B1 expressed in Chinese hamster V79 MZh cells using [14C]-deoxycorticosteron as substrate measured after 6 hrs by phosphoimager analysis
recorded.endpoint: pIC50
# pIC50 = -log10(concentration in molar units)

Answered examples (3):
Recorded result, O=C(Nc1ccc2cc[nH]c2c1)[C@]12ON=C(c3cccnc3)[C@H]1[C@@H]1CC[C@H]2C1 , pIC50: 7.60

Reported pIC50 for O=C(Nc1ccc2[nH]ncc2c1)[C@]12ON=C(c3cncc(-c4ccc(F)cc4)c3)[C@H]1[C@@H]1CC[C@H]2C1 was 8.22

The compound O=C(Nc1cccc(Cl)c1Cl)[C@]12ON=C(c3cccnc3)[C@H]1[C@@H]1CC[C@H]2C1 showed pIC50 equal to 6.80

Next:
Recorded pIC50 (compound O=C(Nc1cccc(F)c1)[C@]12ON=C(c3cccnc3)[C@H]1[C@@H]1CC[C@H]2C1 ): 7.31

====

Molecular target: Cytochrome P450 3A4 (Homo sapiens)
Sequence (P08684 whole entry): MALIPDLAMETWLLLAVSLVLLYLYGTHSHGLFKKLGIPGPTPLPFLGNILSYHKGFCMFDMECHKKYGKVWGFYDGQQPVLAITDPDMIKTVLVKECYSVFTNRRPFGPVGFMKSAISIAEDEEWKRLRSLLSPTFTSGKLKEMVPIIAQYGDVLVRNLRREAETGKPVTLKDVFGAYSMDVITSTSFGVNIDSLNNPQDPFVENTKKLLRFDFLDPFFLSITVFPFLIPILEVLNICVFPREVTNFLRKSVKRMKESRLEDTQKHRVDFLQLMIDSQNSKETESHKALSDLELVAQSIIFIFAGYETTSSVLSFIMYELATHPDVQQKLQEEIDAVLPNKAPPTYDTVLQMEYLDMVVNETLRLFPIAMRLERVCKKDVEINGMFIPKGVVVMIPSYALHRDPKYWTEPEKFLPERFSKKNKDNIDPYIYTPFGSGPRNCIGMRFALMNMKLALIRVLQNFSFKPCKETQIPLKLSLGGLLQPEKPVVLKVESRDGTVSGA
Assay: Inhibition of human hepatic recombinant CYP3A using cocktail of substrate by LC-MS/MS analysis
recorded.endpoint: IC50

Kindly note the recorded IC50 for O=C(Nc1ccc2[nH]ncc2c1)[C@]12ON=C(c3cccnc3)[C@H]1[C@@H]1CC[C@H]2C1 , which is > 10 µM

====

Biological target: Cytochrome P450 11B2, mitochondrial (Homo sapiens)
Sequence (P19099 whole entry): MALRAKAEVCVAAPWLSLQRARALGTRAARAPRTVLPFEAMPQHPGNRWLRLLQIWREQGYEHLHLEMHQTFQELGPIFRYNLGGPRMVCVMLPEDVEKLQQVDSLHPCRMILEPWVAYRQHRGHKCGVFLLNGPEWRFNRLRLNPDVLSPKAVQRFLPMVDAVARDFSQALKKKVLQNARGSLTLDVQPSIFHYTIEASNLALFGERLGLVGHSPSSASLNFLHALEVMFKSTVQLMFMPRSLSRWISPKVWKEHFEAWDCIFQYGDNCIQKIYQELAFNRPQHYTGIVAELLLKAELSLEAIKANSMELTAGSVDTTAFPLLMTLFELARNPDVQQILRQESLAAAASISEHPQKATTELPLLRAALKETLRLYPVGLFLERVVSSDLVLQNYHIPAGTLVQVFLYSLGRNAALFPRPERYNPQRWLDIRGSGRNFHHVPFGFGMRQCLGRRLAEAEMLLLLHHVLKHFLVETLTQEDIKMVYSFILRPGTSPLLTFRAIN
Assay: Inhibition of human CYP11B2 expressed in Chinese hamster V79 MZh cells using [14C]-deoxycorticosteron as substrate measured after 6 hrs by phosphoimager analysis
Each entry below lists one item and its recorded IC50 value.
Quick reminder: number only, in µM, skip the unit.

Before answering, review these 5 worked examples.
For record Nc1ccccc1NC(=O)[C@]12ON=C(c3cccnc3)[C@H]1[C@@H]1CC[C@H]2C1 the listed IC50 is 4.31

Entry O=C(Nc1nc2ccccc2[nH]1)[C@]12ON=C(c3cccnc3)[C@H]1[C@@H]1CC[C@H]2C1 ; IC50 = 2.94

Looking up O=C(Nc1cccc(F)c1)[C@]12ON=C(c3cccnc3)[C@H]1[C@@H]1CC[C@H]2C1 , I found its IC50 recorded as 2.84

GET /value?item= O=C(Nc1cccc(F)n1)[C@]12ON=C(c3cccnc3)[C@H]1[C@@H]1CC[C@H]2C1 &field=IC50 returns 4.01

GET /value?item= O=C(Nc1ccccc1)[C@]12ON=C(c3cccnc3)[C@H]1[C@@H]1CC[C@H]2C1 &field=IC50 returns 5.94

New cases:
IC50 for O=C(Nc1ccc(Cl)cc1)[C@]12ON=C(c3cccnc3)[C@H]1[C@@H]1CC[C@H]2C1 is 6.72

The reported value for N#Cc1cccc(-c2cncc(C3=NO[C@]4(C(=O)Nc5ccc6[nH]ncc6c5)[C@H]5CC[C@H](C5)[C@H]34)c2)c1 in terms of IC50 is 0.329

Sure, the documented IC50 for O=C(Nc1ccc2cc[nH]c2c1)[C@]12ON=C(c3cccnc3)[C@H]1[C@@H]1CC[C@H]2C1 is 2.07

====

Assay: Aqueous solubility of compound
Format: physicochemical
Conditions: buffer
recorded.endpoint: solubility (µM)
Quick note: give the figure in µM, leave out the unit.

Data point: O=C(Nc1ccc2[nH]ncc2c1)[C@]12ON=C(c3cccnc3)[C@H]1[C@@H]1CC[C@H]2C1 ; solubility = 196

====

Test: Selectivity ratio of IC50 for inhibition of human CYP11B2 to IC50 for inhibition of human CYP11B1
Type: ADME
recorded.endpoint: Ratio IC50
Give the figure only, with no unit attached.

The following compounds have reported results that may help.
Ratio IC50 reading for COc1cccc(-c2cncc(C3=NO[C@]4(C(=O)Nc5ccc6[nH]ncc6c5)[C@H]5CC[C@H](C5)[C@H]34)c2)c1 : 32

Per the records, this compound ( O=C(Nc1ccc([N+](=O)[O-])cc1)[C@]12ON=C(c3cccnc3)[C@H]1[C@@H]1CC[C@H]2C1 ) has Ratio IC50 equal to 58

So for O=C(Nc1ncccn1)[C@]12ON=C(c3cccnc3)[C@H]1[C@@H]1CC[C@H]2C1 , the logged Ratio IC50 turned out to be 43

So, O=C(Nc1ccc2[nH]ccc2c1)[C@]12ON=C(c3cccnc3)[C@H]1[C@@H]1CC[C@H]2C1 ? Its Ratio IC50 was 103

---
Data point: Cc1ccncc1NC(=O)[C@]12ON=C(c3cccnc3)[C@H]1[C@@H]1CC[C@H]2C1 ; Ratio IC50 = 39

// Ratio IC50 lookup, compound = O=C(Nc1ccc2[nH]ncc2c1)[C@]12ON=C(c3cncc(-c4ccc(F)cc4)c3)[C@H]1[C@@H]1CC[C@H]2C1 , result: 19

The value of Ratio IC50 measured for the compound Nc1ccccc1NC(=O)[C@]12ON=C(c3cccnc3)[C@H]1[C@@H]1CC[C@H]2C1 turned out to be 31

====

Target: Steroid 17-alpha-hydroxylase/17,20 lyase (Homo sapiens)
Sequence (P05093 whole entry): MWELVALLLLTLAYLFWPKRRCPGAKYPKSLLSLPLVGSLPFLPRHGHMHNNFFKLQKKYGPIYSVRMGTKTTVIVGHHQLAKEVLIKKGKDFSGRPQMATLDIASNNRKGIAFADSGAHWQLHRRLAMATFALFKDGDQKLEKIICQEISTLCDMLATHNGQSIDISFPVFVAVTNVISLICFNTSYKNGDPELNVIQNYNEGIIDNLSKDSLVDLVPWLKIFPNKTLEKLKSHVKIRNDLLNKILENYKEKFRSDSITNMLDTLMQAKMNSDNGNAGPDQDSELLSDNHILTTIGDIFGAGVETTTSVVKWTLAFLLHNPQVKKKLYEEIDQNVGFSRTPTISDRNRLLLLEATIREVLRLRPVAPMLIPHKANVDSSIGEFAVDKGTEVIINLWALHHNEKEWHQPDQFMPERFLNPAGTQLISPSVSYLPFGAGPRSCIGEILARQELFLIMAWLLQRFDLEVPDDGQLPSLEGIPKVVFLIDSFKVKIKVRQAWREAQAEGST
pIC50: −log10 of the molar value.
recorded.endpoint: pIC50

Observed pIC50 on Steroid 17-alpha-hydroxylase/17,20 lyase (Homo sapiens), entry O=C(Nc1ccc2[nH]ncc2c1)[C@]12ON=C(c3cccnc3)[C@H]1[C@@H]1CC[C@H]2C1 , equals < 5.00

====

Target: Cytochrome P450 11B1, mitochondrial (Homo sapiens, UniProt P15538)
Test: Inhibition of human CYP11B1 expressed in Chinese hamster V79 MZh cells using [14C]-deoxycorticosteron as substrate measured after 6 hrs by phosphoimager analysis
IC50 values by entry
The reply should contain only the number, in nM.

N#Cc1ccc(-c2cncc(C3=NO[C@]4(C(=O)Nc5ccc6[nH]ncc6c5)[C@H]5CC[C@H](C5)[C@H]34)c2)cc1 yielded IC50 of 2

More entries:
According to the records, this molecule COc1cccc(-c2cncc(C3=NO[C@]4(C(=O)Nc5ccc6[nH]ncc6c5)[C@H]5CC[C@H](C5)[C@H]34)c2)c1 displays IC50 of 15

Per the record, O=C(Nc1ccc2[nH]ncc2c1)[C@]12ON=C(c3cncc(-c4ccsc4)c3)[C@H]1[C@@H]1CC[C@H]2C1 has IC50 of 37
